- system-tested: T1, soluble human CD3 epsilon chain (human, UniProt P07766 23-126)
- T1 construct: also called CD3ε
- T1 sequence (P07766 23-126 limits assumed): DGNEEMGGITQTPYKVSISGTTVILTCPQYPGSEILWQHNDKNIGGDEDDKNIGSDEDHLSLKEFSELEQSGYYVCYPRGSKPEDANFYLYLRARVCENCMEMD
- procedure-text: SPR
pKd: −log10 of the molar value.

binder	pKd
TR01H081-E22Hh/none-Hi-Kn010G3/L0201-k0 (antibody, V domains shown, one-arm) VH: QVQLVESGGGLVQPGRSLRLSCAASGFTFSNAWMHWVRQAPGKGLEWVAQIKDKSQNYATYYAESVKGRFTISRADSKNSIYLQMNSLKTEDTAVYYCRYVHYAAGYGVDIWGQGTTVTVSS VL: DIVMTQSPLSLPVTPGEPASISCRSSQPPVHSNRNTYLHWYQQKPGQAPRLLIYKVSNRFSGVPDRFSGSGSGTDFTLKISRVEAEDVGVYYCGQGTQVPYTFGQGTKLEIKR	8.02
TR01H009-E22Hh/none-Hi-Kn010G3/L0000-k0 (antibody, V domains shown, one-arm) VH: QVQLVESGGGLVQPGRSLRLSCAASGFTFSNAWMHWVRQAPGKGLEWVAQIKAKSNNYATYYAPSVKGRFTISRADSKNSIYLQMNSLKTEDTAVYYCRYVHYGAYYGVDIWGQGTTVTVSS VL: DIVMTQSPLSLPVTPGEPASISCRSSQSLVHSNRNTYLHWYQQKPGQAPRLLIYKVSNRFSGVPDRFSGSGSGTDFTLKISRVEAEDVGVYYCGQGTQVPYTFGQGTKLEIKR	7.50
TR01H071-E22Hh/none-Hi-Kn010G3/L0215-k0 (antibody, V domains shown, one-arm) VH: QVQLVESGGGLVQPGRSLRLSCAASGFTFSNAWMHWVRQAPGKGLEWVAQIKDKSNNYATYYAESVKGRFTISRADSKNSIYLQMNSLKTEDTAVYYCRYVHYAASYGVDIWGQGTTVTVSS VL: DIVMTQSPLSLPVTPGEPASISCRSSQPPVHSNRNTYIHWYQQKPGQAPRLLIYKVSNRFSGVPDRFSGSGSGTDFTLKISRVEAEDVGVYYCGQGTQVPYTFGQGTKLEIK	8.02
TR01H027-E22Hh/none-Hi-Kn010G3/L0000-k0 (antibody, V domains shown, one-arm) VH: QVQLVESGGGLVQPGGSLRLSCAASGFTFSNAWMHWVRQAPGKGLEWVAQIKSKSQNYATYYAESVKGRFTISRADSKNSIYLQMNSLKTEDTAVYYCRYVHYSASYGVDAWGQGTTVTVSS VL: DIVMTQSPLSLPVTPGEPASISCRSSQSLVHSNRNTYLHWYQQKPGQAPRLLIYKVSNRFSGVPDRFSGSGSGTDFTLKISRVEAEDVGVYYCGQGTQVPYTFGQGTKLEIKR	7.16
TR01H012-E22Hh/none-Hi-Kn010G3/L0000-k0 (antibody, V domains shown, one-arm) VH: QVQLVESGGGLVQPGRSLRLSCAASGFTFSNAWMHWVRQAPGKGLEWVAQIKAKSNNYATYYAESVKGRFTISRADSKNSIYLQMNSLKTEDTAVYYCRYVHYYYSYGVDIWGQGTTVTVSS VL: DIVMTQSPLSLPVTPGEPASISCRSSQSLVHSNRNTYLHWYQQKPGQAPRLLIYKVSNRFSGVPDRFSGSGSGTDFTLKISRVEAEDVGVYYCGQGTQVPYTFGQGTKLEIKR	8.10
